B1: PTS system mannose-specific EIIAB component, P69797 (parent)
chain: MTIAIVIGTHGWAAEQLLKTAEMLLGEQENVGWIDFVPGENAETLIEKYNAQLAKLDTTKGVLFLVDTWGGSPFNAASRIVVDKEHYEVIAGVNIPMLVETLMARDDDPSFDELVALAVETGREGVKALKAKPVEKAAPAPAAAAPKAAPTPAKPMGPNDYMVIGLARIDDRLIHGQVATRWTKETNVSRIIVVSDEVAADTVRKTLLTQVAPPGVTAHVVDVAKMIRVYNNPKYAGERVMLLFTNPTDVERLVEGGVKITSVNVGGMAFRQGKTQVNNAVSVDEKDIEAFKKLNARGIELEVRKVSTDPKLKMMDLISKIDK

# Variants of: B1
# measurement conditions: Escherichia coli (strain K12); pH 7.4; 22 °C; GdnHCl; Fluorescence; Sodium phosphate 20 mM; reversible: yes; structure 1PDO; whole UniProt chain shown
Measured unfolding free energy of individual entries
Note: unit kcal/mol is implicit; provide only the numeric part.

>>> observed_value("W33F W69F")
5.26

Req: Item W33F has what recorded unfolding free energy?
Resp: 8.37

Req: Item W12F has what recorded unfolding free energy?
Resp: 14.1
